# TESTED ON: T1, Human PD-1 expressed on CHO-K1 cells (CHO-K1/hPD-1) (human, UniProt Q15116 25-288)
# T1 construct: whole, on cells; also called CHO-K1 cells overexpressing human PD-1
# T1 sequence (Q15116 25-288): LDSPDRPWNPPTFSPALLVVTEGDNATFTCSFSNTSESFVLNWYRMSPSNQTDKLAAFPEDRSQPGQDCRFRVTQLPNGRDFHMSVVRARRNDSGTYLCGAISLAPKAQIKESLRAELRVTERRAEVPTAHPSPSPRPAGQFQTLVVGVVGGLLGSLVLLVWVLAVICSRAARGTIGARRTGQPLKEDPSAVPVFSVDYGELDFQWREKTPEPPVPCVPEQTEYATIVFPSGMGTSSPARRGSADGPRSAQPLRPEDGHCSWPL
# PROTOCOL SUMMARY: FACS blocking of biotin-labeled human PD-L2 binding to CHO-K1-hPD-1 cells
PROPERTY: IC50
Don't forget the unit after the number, please.

Exam item: // query IC50 value for entry PR000679 (antibody, human IgG4 S228P, kappa, V domains shown, Fully human recombinant H2L2 antibody, human IgG4, kappa light chain; also called 4004_6C11C6) VH: QVQLVQSGTEVKKPGSSVKVSCKASGGTFSSYAISWVRQAPGQGLEWMGGIIPIFDTVSSAQKFQGRVTITADKSTSTAYMELFSLRSEDTAVYYCARSPPYSSNWYQYFQHWGQGTLVTVSS VL: DIQMTQSPSTLSASVGDRVTITCRASQTISIWLAWYQQKPGKAPKLLIYKASSLESGVPSRFSGSGSGTEFTLTISSLQPDDFATYYCQQFNSYWTFGQGTKVEIKR
Marked response: 3.38 nM
